Target Of Assay: Histone deacetylase 1 (Homo sapiens)
Sequence (Q13547 whole entry): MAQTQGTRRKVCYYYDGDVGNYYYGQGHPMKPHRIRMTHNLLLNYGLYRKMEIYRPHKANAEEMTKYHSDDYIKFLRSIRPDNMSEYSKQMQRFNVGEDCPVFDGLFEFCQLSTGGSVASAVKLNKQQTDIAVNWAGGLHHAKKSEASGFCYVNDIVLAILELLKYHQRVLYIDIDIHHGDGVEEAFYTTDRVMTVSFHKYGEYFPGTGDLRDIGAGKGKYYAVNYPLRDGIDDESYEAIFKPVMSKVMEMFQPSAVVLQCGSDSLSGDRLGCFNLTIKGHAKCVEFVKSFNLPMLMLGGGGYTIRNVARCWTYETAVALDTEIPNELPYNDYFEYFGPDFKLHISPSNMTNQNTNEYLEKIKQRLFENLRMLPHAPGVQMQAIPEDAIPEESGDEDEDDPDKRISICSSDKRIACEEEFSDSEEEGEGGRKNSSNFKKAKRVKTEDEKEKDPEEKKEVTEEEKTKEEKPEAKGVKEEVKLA
Experiment: Inhibition of human recombinant HDAC1 using fluorogenic substrate
Readout: IC50 (µM)
All answers are understood in µM, so give the number only.

Any idea what IC50 came out for O=C(O)CCCc1ccccc1 [SODIUM PHENYLBUTYRATE] on Histone deacetylase 1 (Homo sapiens)?
162

---

Readout: IC50 (nM)
All answers are understood in nM, so give the number only.

Any idea what IC50 came out for `CC(C)(C)OC(=O)Nc1cccc(C(=O)/C=C/c2ccc(/C=C/C(=O)NO)cc2)c1` on UniProtKB Q9BY41?
1200

---

Target Of Assay: Histone deacetylase 1 (Homo sapiens)
Experiment: Inhibition of HDAC1 (unknown origin)
Readout: IC50 (µM)
All answers are understood in µM, so give the number only.

Requested field: IC50. Item: `CCCC(=O)O`
300

Requested field: IC50. Item: `C[C@@H]1CN(Cc2ccc(C(=O)NO)cc2)C[C@H](C)N1Cc1cccc(Cl)c1`
11.4

---

I'd appreciate it if you could supply IC50 values for the items below.
All answers are understood in µM, so give the number only.

Any idea what IC50 came out for CCCC(=O)O [BUTYRIC ACID] on Histone deacetylase 2 (Homo sapiens, UniProt Q92769)?
400

Any idea what IC50 came out for `CC(C)(C)OC(=O)Nc1cccc(C(=O)/C=C/c2ccc(/C=C/C(=O)NO)cc2)c1` on Histone deacetylase 2 (Homo sapiens, UniProt Q92769)?
2.1

---

Readout: IC50 (nM)
All answers are understood in nM, so give the number only.

Any idea what IC50 came out for `CC(C)(C)OC(=O)Nc1cccc(C(=O)/C=C/c2ccc(/C=C/C(=O)NO)cc2)c1` on Protein deacetylase HDAC6 (Homo sapiens)?
11

---

Target Of Assay: Histone deacetylase 3 (Homo sapiens, UniProt O15379)
Sequence (O15379 whole entry): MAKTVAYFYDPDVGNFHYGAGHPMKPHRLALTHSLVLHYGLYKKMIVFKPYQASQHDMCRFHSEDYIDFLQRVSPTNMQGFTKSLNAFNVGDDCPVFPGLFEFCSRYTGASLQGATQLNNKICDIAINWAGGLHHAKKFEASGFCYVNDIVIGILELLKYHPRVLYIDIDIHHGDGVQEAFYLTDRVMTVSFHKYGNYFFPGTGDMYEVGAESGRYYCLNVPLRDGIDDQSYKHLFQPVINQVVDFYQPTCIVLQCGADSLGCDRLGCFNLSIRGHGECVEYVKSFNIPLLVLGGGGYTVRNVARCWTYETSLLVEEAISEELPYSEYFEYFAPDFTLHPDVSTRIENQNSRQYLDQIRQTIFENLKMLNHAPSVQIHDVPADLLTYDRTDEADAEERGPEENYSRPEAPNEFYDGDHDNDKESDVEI
Readout: IC50 (µM)
All answers are understood in µM, so give the number only.

Requested field: IC50. Item: `CC(C)(C)OC(=O)Nc1cccc(C(=O)/C=C/c2ccc(/C=C/C(=O)NO)cc2)c1`
10.8

Reference source: ChEMBL document CHEMBL5136998
